TARGET OF ASSAY: IRAK4 (Homo sapiens (Human))
Sequence (Q9NWZ3 whole entry): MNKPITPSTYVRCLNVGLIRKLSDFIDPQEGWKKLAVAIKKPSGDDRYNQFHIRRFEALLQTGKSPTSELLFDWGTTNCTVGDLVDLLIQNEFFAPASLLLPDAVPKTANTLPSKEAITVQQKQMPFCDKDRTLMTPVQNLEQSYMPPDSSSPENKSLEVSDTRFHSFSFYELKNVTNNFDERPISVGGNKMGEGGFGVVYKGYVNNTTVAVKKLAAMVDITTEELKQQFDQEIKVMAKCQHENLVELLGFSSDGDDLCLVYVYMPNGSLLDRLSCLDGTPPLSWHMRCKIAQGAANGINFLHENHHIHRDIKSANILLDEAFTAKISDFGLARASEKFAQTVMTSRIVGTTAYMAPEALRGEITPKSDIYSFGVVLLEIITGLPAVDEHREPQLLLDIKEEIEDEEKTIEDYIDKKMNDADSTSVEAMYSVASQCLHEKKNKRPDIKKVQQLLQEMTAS
MEASUREMENT NOTES: IRAK4 Kinase Assay
Type: biochemical
TEST CONTEXT: IMAP fluorescence polarization, 0.5 nM GST tagged IRAK4, 100 μM ATP, 30 minutes at 25° C.; read-out: IRAK4 IC50
Where a name gives a salt, the structure may show the parent alone.
Exercise: for every item that follows, state its recorded log10(IC50).
Hey, these are logged values: log10 of IC50, nM being the unit before logging.

Query :: Form entry - test system: IRAK4 (Homo sapiens (Human)); read-out: log10(IC50); compound: Cn1cc(NC(=O)c2cnn3ccc(N4[C@H]5CCNC[C@@H]4CC5)nc23)c(C(F)(F)F)n1 (single isomer, unassigned) [Example 222, trifluoroacetate]
Result :: 2.23

Query :: Thanks! And Cn1cc(NC(=O)c2cnn3ccc(N4C[C@H](O)C[C@@H](O)C4)nc23)c(C(F)F)n1 [Example 24] ?
Result :: 0.60

Query :: Thanks! And Cn1cc(NC(=O)c2cnn3ccc(N4CCC[C@@H](N)C4)nc23)c(C(F)F)n1 [Example 90, trifluoroacetate] ?
Result :: -0.30

Query :: Thanks! And N[C@H]1CCCC[C@H]1Nc1ccn2ncc(C(=O)Nc3cscc3Cl)c2n1 [Example 168, trifluoroacetate] ?
Result :: 0.00

Query :: Thanks! And Cn1cc(NC(=O)c2cnn3ccc(NCCN4CCOCC4)nc23)c(C(F)(F)F)n1 [Example 290, trifluoroacetate] ?
Result :: 2.99

Query :: Thanks! And Cn1cc(NC(=O)c2cnn3ccc(N[C@@H]4CCCNC4)nc23)c(C(F)F)n1 [Example 91, trifluoroacetate] ?
Result :: -0.30

Query :: Thanks! And Cn1cc(NC(=O)c2cnn3ccc(N[C@@H]4CNC[C@H](F)C4)nc23)c(C(F)(F)F)n1 [Example 254] ?
Result :: 2.94

###

TARGET OF ASSAY: IRAK4 (Homo sapiens (Human))
MEASUREMENT NOTES: IRAK4 Kinase Assay
Assay type: biochemical
TEST CONTEXT: IMAP fluorescence polarization, 0.5 nM GST tagged IRAK4, 100 μM ATP, 30 minutes at 25° C.; read-out: IRAK4 IC50
Where a name gives a salt, the structure may show the parent alone.
READOUT NAME: pIC50
Note: pIC50 values are expressed as the negative base-10 logarithm of concentration in M.

Query :: Form entry - test system: IRAK4 (Homo sapiens (Human)); read-out: pIC50; compound: Cn1cc(NC(=O)c2cnn3ccc(N4C[C@@H]5CNC[C@H]4C5)nc23)c(C(F)F)n1 (single isomer, unassigned) [Example 239]
Result :: 8.52

Query :: Thanks! And N[C@H]1CCCC[C@H]1Nc1ccn2ncc(C(=O)Nc3ccoc3C(F)(F)F)c2n1 [Example 45, trifluoroacetate] ?
Result :: 8.10

Query :: Thanks! And O=C(Nc1ccsc1Br)c1cnn2ccc(N3CC4CCC3CN4)nc12 (centres unmarked) [Example 142, trifluoroacetate] ?
Result :: 6.28

Query :: Thanks! And Cn1cc(NC(=O)c2cnn3ccc(N4C5CCC4CNC5)nc23)c(C(F)(F)F)n1 [Example 226, trifluoroacetate] ?
Result :: 8.70

Query :: Thanks! And N[C@H]1CCCC[C@H]1Nc1ccn2ncc(C(=O)Nc3ccccc3C(F)(F)F)c2n1 [Example 38] ?
Result :: 7.80

Query :: Thanks! And O=C(Nc1ccsc1C(F)(F)F)c1cnn2ccc(N3CC4CCC3CN4)nc12 (centres unmarked) [Example 147, trifluoroacetate] ?
Result :: 6.01

Query :: Thanks! And Cn1cc(NC(=O)c2cnn3ccc(N4CC5CNCC4C5)nc23)c(C(F)F)n1 (centres unmarked) [Example 238] ?
Result :: 8.40

Query :: Thanks! And Cn1cc(NC(=O)c2cnn3ccc(N4CC5CCC(C4)N5)nc23)c(C(F)(F)F)n1 [Example 81, trifluoroacetate] ?
Result :: 8.05

Query :: Thanks! And Cn1cc(NC(=O)c2cnn3ccc(NC4CCCCNC4)nc23)c(C(F)F)n1 (centres unmarked) [Example 99] ?
Result :: 8.52

Query :: Thanks! And Cn1cc(NC(=O)c2cnn3ccc(N4CCC(F)(F)[C@H](N)C4)nc23)c(C(F)F)n1 (single isomer, unassigned) [Example 193] ?
Result :: 8.70

Query :: Thanks! And Cn1cc(NC(=O)c2cnn3ccc(N4CCC[C@@H](O)C4)nc23)c(C(F)(F)F)n1 [Example 23] ?
Result :: 9.05

Query :: Thanks! And Cn1cc(NC(=O)c2cnn3ccc(N4C[C@@H](N)C[C@H](F)C4)nc23)c(C(F)F)n1 [Example 248, trifluoroacetate] ?
Result :: 9.05

Query :: Thanks! And N#Cc1ccccc1NC(=O)c1cnn2ccc(N[C@@H]3CCCC[C@@H]3N)nc12 [Example 265] ?
Result :: 9.00

Query :: Thanks! And O=C(Nc1cscc1Br)c1cnn2ccc(N3CCCNCC3)nc12 [Example 123, trifluoroacetate] ?
Result :: 6.41

Query :: Thanks! And O=C(Nc1ccccc1Cl)c1cnn2ccc(N3CC4CCC3CN4)nc12 (centres unmarked) [Example 107, trifluoroacetate] ?
Result :: 6.28

Query :: Thanks! And N[C@@H]1[C@H](Nc2ccn3ncc(C(=O)Nc4ccccc4C(F)(F)F)c3n2)CCCC1(F)F [Example 114] ?
Result :: 5.42

Query :: Thanks! And Cn1cc(NC(=O)c2cnn3ccc(N4CCNCCC45CC5)nc23)c(C(F)(F)F)n1 [Example 95, trifluoroacetate] ?
Result :: 6.10

Query :: Thanks! And Cn1cc(NC(=O)c2cnn3ccc(N4C[C@@H]5CN[C@@H](C5)C4)nc23)c(C(F)(F)F)n1 (single isomer, unassigned) [Example 224] ?
Result :: 7.15

Query :: Thanks! And Cn1cc(NC(=O)c2cnn3ccc(N[C@H]4CNCCC4(F)F)nc23)c(C(F)(F)F)n1 (single isomer, unassigned) [Example 243, trifluoroacetate] ?
Result :: 9.30

Query :: Thanks! And Cn1cc(NC(=O)c2cnn3ccc(N4CCNCC4C4CC4)nc23)c(C(F)(F)F)n1 (centres unmarked) [Example 29, trifluoroacetate] ?
Result :: 7.62

Query :: Thanks! And O=C(Nc1ccccc1Cl)c1cnn2ccc(N[C@@H]3CCCC[C@@H]3O)nc12 [Example 194] ?
Result :: 5.76

Query :: Thanks! And Cn1cc(NC(=O)c2cnn3ccc(N4CC[C@@H]5C[C@H]4CN5)nc23)c(C(F)(F)F)n1 [Example 213] ?
Result :: 8.52

Query :: Thanks! And Cn1cc(NC(=O)c2cnn3ccc(N4C5CCC4CNC5)nc23)c(C(F)F)n1 [Example 229, trifluoroacetate] ?
Result :: 9.30

Query :: Thanks! And N[C@@H]1[C@H](Nc2ccn3ncc(C(=O)Nc4ccccc4C(F)F)c3n2)CCCC1(F)F [Example 132] ?
Result :: 5.68

Query :: Thanks! And O=C(Nc1ccccc1C(F)(F)F)c1cnn2ccc(N3CC4CCC3CN4)nc12 (centres unmarked) [Example 115] ?
Result :: 5.25

Query :: Thanks! And CC(O)c1cc(NC(=O)c2cnn3ccc(N[C@@H]4CCCC[C@@H]4N)nc23)cs1 (some centres unmarked) [Example 276] ?
Result :: 7.19

Query :: Thanks! And Cn1cc(NC(=O)c2cnn3ccc(N4CCCNCC45CC5)nc23)c(C(F)(F)F)n1 [Example 98, trifluoroacetate] ?
Result :: 7.48

Query :: Thanks! And N[C@@H]1CCCC[C@@H]1Nc1ccn2ncc(C(=O)Nc3cnn(-c4cccnc4)c3)c2n1 [Example 278, trifluoroacetate] ?
Result :: 8.05

Query :: Thanks! And Cn1cc(NC(=O)c2cnn3ccc(N[C@@H]4CCCC(F)[C@@H]4N)nc23)c(C(F)(F)F)n1 (single isomer, unassigned) [Example 203] ?
Result :: 8.15

###

TARGET OF ASSAY: IRAK4 (Homo sapiens (Human))
MEASUREMENT NOTES: IRAK4 Kinase Assay
Format: biochemical
TEST CONTEXT: IMAP fluorescence polarization, 0.5 nM GST tagged IRAK4, 100 μM ATP, 30 minutes at 25° C.; read-out: IRAK4 IC50
Structures can show the parent of a compound that is named as a salt.
Exercise: for every item that follows, state its recorded pIC50.
Note: pIC50 values are expressed as the negative base-10 logarithm of concentration in M.

Query :: # get_value(readout='pIC50', item= Cn1cc(NC(=O)c2cnn3ccc(N4CCCNCC4)nc23)c(C(F)F)n1 [Example 87, trifluoroacetate] )
Result :: 8.40

Query :: Thanks! And O=C(Nc1cn(C(F)F)nc1C(F)(F)F)c1cnn2ccc(N[C@@H]3CCCC[C@@H]3O)nc12 ?
Result :: 6.85

Query :: Thanks! And Cc1cnc(-c2nn(C)cc2NC(=O)c2cnn3ccc(N[C@@H]4CCCC[C@@H]4N)nc23)o1 [Example 285, trifluoroacetate] ?
Result :: 7.62

Query :: Thanks! And Cn1cc(NC(=O)c2cnn3ccc(N[C@@H]4CNCC[C@@H]4F)nc23)c(C(F)(F)F)n1 (single isomer, unassigned) ?
Result :: 9.30
